- System: RDEB dermal fibroblasts EB119
- Assay Notes: day of extracellular matrix detachment from plate (days); higher = delayed detachment (less fibrotic matrix)
- Assay Conditions: compound concentration: 10 uM
Please provide measured day of extracellular matrix detachment from plate for the entries that follow.

Field day of extracellular matrix detachment from plate (system: RDEB dermal fibroblasts EB119) for entry CCCN(CCC)C(=O)C1=Cc2ccc(-c3ccc(C(=O)N4CCCC4)cc3)cc2N=C(N)C1 = 26

Field day of extracellular matrix detachment from plate (system: RDEB dermal fibroblasts EB119) for entry C=CC[C@@H]1/C=C(\C)C[C@H](C)C[C@H](OC)[C@H]2O[C@@](O)(C(=O)C(=O)N3CCCC[C@H]3C(=O)O[C@H](/C(C)=C/[C@@H]3CC[C@@H](O)[C@H](OC)C3)[C@H](C)[C@@H](O)CC1=O)[C@H](C)C[C@@H]2OC = 20.7

Field day of extracellular matrix detachment from plate (system: RDEB dermal fibroblasts EB119) for entry COCCCOc1ccnc(C[S+]([O-])c2nc3ccccc3[nH]2)c1C (stereo not drawn) [Rebeprazole sodium] = 25

---

- System: RDEB dermal fibroblasts EB119
- Assay Notes: day of extracellular matrix detachment from plate (days); higher = delayed detachment (less fibrotic matrix)
- Assay Conditions: compound concentration: 10 uM
Structures can show the parent of a compound that is named as a salt.
Readout: day of extracellular matrix detachment from plate
Just the number, please.

Field day of extracellular matrix detachment from plate (system: RDEB dermal fibroblasts EB119) for entry CCCCCCCCc1ccc(CCC(N)(CO)CO)cc1 [Fingolimod (FTY720) HCl] = 26

Field day of extracellular matrix detachment from plate (system: RDEB dermal fibroblasts EB119) for entry O=C1C(O)=C([C@H]2CC[C@H](c3ccc(Cl)cc3)CC2)C(=O)c2ccccc21 [Atovaquone] = 26

Field day of extracellular matrix detachment from plate (system: RDEB dermal fibroblasts EB119) for entry Cc1cc(/C=C/C#N)cc(C)c1Nc1ccnc(Nc2ccc(C#N)cc2)n1 [Rilpivirine] = 39

Field day of extracellular matrix detachment from plate (system: RDEB dermal fibroblasts EB119) for entry O=C(O)CCCCCCCC(=O)O [Azelaic acid] = 26.3

---

- Test system: RDEB dermal fibroblasts EB119
- Assay Notes: day of extracellular matrix detachment from plate (days); higher = delayed detachment (less fibrotic matrix)
- Assay Conditions: compound concentration: 10 uM
Where a name gives a salt, the structure may show the parent alone.
day of extracellular matrix detachment from plate below 30 gives not satisfied; day of extracellular matrix detachment from plate at or above it gives satisfied.

IN: Decide: day of extracellular matrix detachment from plate of CCOC(=O)[C@H]1O[C@@H]1C(=O)N[C@@H](CC(C)C)C(=O)NCCC(C)C >= 30?
OUT: not satisfied

IN: Decide: day of extracellular matrix detachment from plate of OC(c1cc(C(F)(F)F)nc2c(C(F)(F)F)cccc12)C1CCCCN1 (stereo not drawn) [Mefloquine HCl] >= 30?
OUT: satisfied

IN: Decide: day of extracellular matrix detachment from plate of CSc1ccc2c(c1)N(CCC1CCCCN1C)c1ccccc1S2 (stereo not drawn) [Thioridazine HCl] >= 30?
OUT: satisfied

IN: Decide: day of extracellular matrix detachment from plate of CCN(CC)CCCC(C)Nc1ccnc2cc(Cl)ccc12 (stereo not drawn) [Chloroquine Phosphate] >= 30?
OUT: satisfied

IN: Decide: day of extracellular matrix detachment from plate of Nc1nc(NC2CC2)c2ncn([C@H]3C=C[C@@H](CO)C3)c2n1 [Abacavir sulfate] >= 30?
OUT: not satisfied

IN: Decide: day of extracellular matrix detachment from plate of CCN(CCO)CCCC(C)Nc1ccnc2cc(Cl)ccc12 (stereo not drawn) [Hydroxychloroquine Sulfate] >= 30?
OUT: satisfied

IN: Decide: day of extracellular matrix detachment from plate of CC(C)(CO)[C@@H](O)C(=O)NCCCO >= 30?
OUT: not satisfied

IN: Decide: day of extracellular matrix detachment from plate of CNC(=O)[C@H](Cc1ccccc1)NC(=O)[C@H](CC(C)C)[C@H](CSc1cccs1)C(=O)NO >= 30?
OUT: not satisfied
